test system: BT-549 breast; test: NCI tumour cell line growth inhibition, 48 h
testReadout: TGI (µM)
Numbers only, in µM.

Below, 4 molecules whose answers are already recorded.
CC(C)(C)c1cc(Br)c(O)c(CN(Cc2cc(C(C)(C)C)cc(Br)c2O)C2CCCCC2)c1    29.2
C=C1C(=O)O[C@@H]2/C=C(\C)CC/C=C(/COC(C)=O)C[C@@H](OC(C)=O)[C@@H]12    16.7
O=C1CC(=Nc2ccc(Cl)cc2)C(c2ccccc2)N1c1ccccc1 (configuration not stated)    41.6
CCOC(=O)c1cc(C(O)P2(=O)N(CC(C)(C)C)[C@@H]3CCCC[C@H]3N2CC(C)(C)C)cn1C(=O)OC(C)(C)C (some centres not stated)    31.9

As a next step, examine the molecule that follows.
Value of TGI reported for the molecule COC(=O)[C@H](C)NC(=O)NC(=O)NC(=O)CI is 28.6

---

system: SF-268 CNS; experiment: NCI tumour cell line growth inhibition, 48 h
Kindly supply the reported TGI values for the records listed here.

CCOC(=O)c1c(C)n(Cc2ccc(Cl)cc2Cl)c2c1c(CN(C)C)c(O)c1[nH]cnc12    28.3 µM
N#CCN1C(=O)c2cccc3cc([N+](=O)[O-])cc(c23)C1=O    > 100 µM

Value of TGI reported for the compound COc1cc(C(C)O)c[n+](CCc2c[nH]c3ccccc23)c1 (stereo not drawn) is > 100 µM

---

system: SK-MEL-2 melanoma; assay: NCI tumour cell line growth inhibition, 48 h
testReadout: TGI (µM)
Numbers only, in µM.

N#C/C(=C1C=C(Br)/C(=N\O)C=C\1Cl)c1cccc2ccccc12    8.9
CN(C)C(=O)c1cc2cnc(Nc3ccc(-c4csc5c(=S)cc(N6CCOCC6)oc45)cc3)nc2n1C1CCCC1    2.84
Cc1cccc(N=NC(=O)NNc2cccc(C)c2C)c1C    46.7

As a next step, examine the compound that follows.
Value of TGI reported for the compound CC(C)(C)OC(=O)NC(Cc1ccc(OCc2ccccc2)cn1)C(=O)N1CCCCC1 (stereo not given) is 58.2

---

system: T-47D breast; assay: NCI tumour cell line growth inhibition, 48 h
Kindly supply the reported TGI values for the records listed here.

Below, 2 molecules whose answers are already recorded.
COc1ccc(/C=C/c2ccnc3ccccc23)c(OC)c1    > 10 µM
Cc1cccc(N=NC(=O)NNc2cccc(C)c2C)c1C    > 100 µM

As a next step, examine the molecule that follows.
Value of TGI reported for the molecule Cc1cccc(N2CCN(C(=S)c3ccc4c(c3)OCO4)CC2)c1 is > 100 µM

---

test system: HOP-62 NSCLC; test: NCI tumour cell line growth inhibition, 48 h
testReadout: TGI

Below, 4 molecules whose answers are already recorded.
CN(C)C(=O)c1cc2cnc(Nc3ccc(-c4csc5c(=S)cc(N6CCOCC6)oc45)cc3)nc2n1C1CCCC1    > 50 µM
c1ccc(CNn2nnc3ccccc32)cc1    > 100 µM
CN1CCN(CCCOc2ccc3nc(Nc4ccc(Cl)c(C(F)(F)F)c4)ccc3c2)CC1    29.6 µM
CC12C(=O)CC(CC1=O)C2(C)C    > 100 µM

Give TGI for each listed item.
1. COC1=C(OC)C(=O)C(Cc2c(C)nc3sc(C)cn23)=C(C)C1=O
2. C[N+](C)(C)CC1CCCCCCCCCCC1=O (stereo not given)

Output line:
1. 35.7 µM
2. > 100 µM

Give TGI for each listed item.
1. CC(=O)CSCc1ccccn1
2. CN1C/C=C\CCOc2cccc(c2)-c2ccnc(n2)Nc2cccc(c2)C1
3. CN1C(=O)c2cccc3cc([N+](=O)[O-])cc(c23)C1=O
4. Cc1cccc(NC(=O)C(=O)C(C(=O)c2ccc3ccccc3c2)C2OC(=O)c3ccccc32)c1C (stereo not given)

Output line:
1. > 100 µM
2. 0.402 µM
3. > 10 µM
4. 24.7 µM
